Method summary: drug combination growth inhibition, ovarian cancer – cell-based, oncology-focused library, rucaparib conditional, profiling panel (AID 1508598)
Measurement parameters: patient-derived ovarian cancer cells, CellTiter-Glo viability, 144 h; at 0.00122 µM; OCI-C5x cells; without rucaparib; stronger effect = lower value
Please provide measured viability for the entries that follow.
State just the number; it will be interpreted in %.

Consider CS(=O)(=O)c1ccc(C(=O)Nc2ccc(Cl)c(-c3ccccn3)c2)c(Cl)c1 . Its measured viability is 125

Short answer for Cc1cc(N2CCOCC2)cc2[nH]c(-c3c(NC[C@@H](O)c4cccc(Cl)c4)cc[nH]c3=O)nc12 : viability was 114

Note to self: viability recorded for O=C(NOC[C@H](O)CO)c1ccc(F)c(F)c1Nc1ccc(I)cc1F was 103

Entry Cc1cnc(-c2cnc(NCCNc3ccc(C#N)cn3)nc2-c2ccc(Cl)cc2Cl)[nH]1 , viability reported as 122

Lab book: viability of Cc1ccc2nc(NC(=O)CSc3nc4c(c(=O)n3-c3ccccc3)SCC4)sc2c1 noted as 109
